- Tested system: p38alpha (Homo sapiens, UniProt Q16539)
- Construct: GST (N); made in house; host or cells: E. coli (pGEX vector)
- Sequence (Q16539 whole entry): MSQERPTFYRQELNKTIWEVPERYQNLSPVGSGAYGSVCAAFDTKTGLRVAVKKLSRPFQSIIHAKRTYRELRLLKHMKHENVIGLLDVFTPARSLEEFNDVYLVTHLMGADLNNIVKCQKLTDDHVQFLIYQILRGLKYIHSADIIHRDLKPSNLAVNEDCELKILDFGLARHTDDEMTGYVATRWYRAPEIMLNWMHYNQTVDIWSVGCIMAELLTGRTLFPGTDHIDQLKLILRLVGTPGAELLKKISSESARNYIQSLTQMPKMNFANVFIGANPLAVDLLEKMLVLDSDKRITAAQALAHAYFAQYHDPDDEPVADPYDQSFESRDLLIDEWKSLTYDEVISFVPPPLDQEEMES
- Test summary: p38α Assay (Caliper LabChip, fluoresceinated peptide)
- Format: biochemical
- Experimental parameters: ratio of p38 beta IC50 to p38 alpha IC50; higher numbers indicate greater alpha selectivity

>  <Smiles notation>
Cc1ccc(C(=O)NC2CC2)cc1NC(=O)c1ccc(-c2cccc(N)c2)s1

>  <beta/alpha (alpha selectivity)>
200

$$$$
>  <Smiles notation>
Cc1ccc(C(=O)NC2CC2)cc1NC(=O)c1ccc(-c2ccc(F)nc2)s1

>  <beta/alpha (alpha selectivity)>
257

$$$$
>  <Smiles notation>
Cc1ccc(C(=O)NC2CC2)cc1NC(=O)c1ccc(-c2ncccc2C(F)(F)F)s1

>  <beta/alpha (alpha selectivity)>
433

$$$$
>  <Smiles notation>
Cc1ccc(C(=O)NC2CC2)cc1NC(=O)c1ccc(-c2ccc(C(=O)NC(C)C)cc2)s1

>  <beta/alpha (alpha selectivity)>
118

$$$$
>  <Smiles notation>
Cc1ccc(C(=O)NC2CC2)cc1NC(=O)c1ccc2ccn(CCN3CCOCC3)c2c1

>  <beta/alpha (alpha selectivity)>
448

$$$$
>  <Smiles notation>
Cc1ccc(C(=O)NC2CC2)cc1NC(=O)c1ccc(-c2cccc(CO)c2)s1

>  <beta/alpha (alpha selectivity)>
233

$$$$
>  <Smiles notation>
Cc1ccc(C(=O)NC2CC2)cc1NC(=O)c1ccc(-c2cccc(C(=O)O)c2)s1

>  <beta/alpha (alpha selectivity)>
248

$$$$
>  <Smiles notation>
Cc1ccc(C(=O)NC2CC2)cc1NC(=O)c1ccc(-c2ccc(C(N)=O)cc2)s1

>  <beta/alpha (alpha selectivity)>
162

$$$$
